Tested on: NCI-H835 (Other Solid Carcinomas)
METHOD_NOTES: combination Emax (second highest fraction inhibited in the dose matrix, 72 h); higher = more inhibition; extreme values may be limits of the assay
# combination Emax values compiled below

Query string: Recorded combination Emax of Cc1cc2ncnn2cc1Nc1ncc2c(n1)n(C1CCOCC1)c(=O)n2C [AZD7648] + C=CCn1c(=O)c2cnc(Nc3ccc(N4CCN(C)CC4)cc3)nc2n1-c1cccc(C(C)(C)O)n1 [AZD1775] (first compound max 10 µM, partner max 1 µM) , please.
Result string: 0.69

Query string: Recorded combination Emax of COc1nnc2ccc(N3CCC(c4ccc(OCCN5CCN(C)C(=O)[C@H]5C)cc4)CC3)nn12 [AZD5153] + C[C@@H]1COCCN1C2=NC(=NC(=C2)C3(CC3)[S@](=N)(=O)C)C4=C5C=CNC5=NC=C4 [AZD6738] (first compound max 1 µM, 7x7, partner max 10 µM) , please.
Result string: 0.727

Query string: Recorded combination Emax of CCc1c2c(nc3ccc(O)cc13)-c1cc3c(c(=O)n1C2)COC(=O)[C@]3(O)CC [SN-38] + CN(C)CCCOc1ccc(-c2ccc3ncc4c(c3c2)n(C2CCOCC2)c(=O)n4C)cn1 [AZD0156] (first compound max 0.3 µM, 7x7, partner max 1 µM) , please.
Result string: 0.242

Query string: Recorded combination Emax of CN(CCO)CC[C@H](CSc1ccccc1)Nc1ccc(S(=O)(=O)NC(=O)c2ccc(N3CCC([C@@H](O)c4ccccc4-c4ccc(Cl)cc4)CC3)cc2)cc1S(=O)(=O)C(F)(F)F [AZD4320] + Nc1ccn([C@@H]2O[C@H](CO)[C@@H](O)C2(F)F)c(=O)n1 [Gemcitabine] (first compound max 1 µM, 7x7, partner max 0.3 µM) , please.
Result string: 0.966

Query string: Recorded combination Emax of CS(=O)(=O)CCNCc1ccc(-c2ccc3ncnc(Nc4ccc(OCc5cccc(F)c5)c(Cl)c4)c3c2)o1 [Lapatinib] + NC1(c2ccc(-c3nc4ccn5c(=O)[nH]nc5c4cc3-c3ccccc3)cc2)CCC1 [MK-2206] (first compound max 10 µM, 7x7, partner max 10 µM) , please.
Result string: 0.868

---

System: MDA-MB-175-VII (Breast Carcinoma)
METHOD_NOTES: Bliss excess, mean over the matrix (fraction); higher = more synergy
Values of Bliss excess greater than or equal to -0.01 map to 1; values below map to -1.

Past entries and their recorded results:
- COMPOUND: "COc1cccc(OCCCN)c1-c1cc(Nc2cnc(C#N)cn2)n[nH]1 [Prexasertib] + CN(C)CCCOc1ccc(-c2ccc3ncc4c(c3c2)n(C2CCOCC2)c(=O)n4C)cn1 [AZD0156] (first compound max 1 µM, 7x7, partner max 1 µM)"
  QUALITATIVE_LABEL: -1
- COMPOUND: "CC(=O)c1c(C)c2cnc(Nc3ccc(N4CCNCC4)cn3)nc2n(C2CCCC2)c1=O [Palbociclib] + Cc1c2c(nn1C)CSCc1cc(n(C)n1)CSc1cc(c3ccccc3c1)OCCCc1c(C(=O)O)n(C)c3c-2c(Cl)ccc13 [AZD5991] (first compound max 10 µM, 7x7, partner max 1 µM)"
  QUALITATIVE_LABEL: 1
- COMPOUND: "COc1nnc2ccc(N3CCC(c4ccc(OCCN5CCN(C)C(=O)[C@H]5C)cc4)CC3)nn12 [AZD5153] + Cn1cnc2c(F)c(Nc3ccc(Br)cc3Cl)c(C(=O)NOCCO)cc21 [Selumetinib] (first compound max 1 µM, 7x7, partner max 10 µM)"
  QUALITATIVE_LABEL: 1
- COMPOUND: "Cc1cc2ncnn2cc1Nc1ncc2c(n1)n(C1CCOCC1)c(=O)n2C [AZD7648] + COc1cc([C@@H]2c3cc4c(cc3[C@@H](O[C@@H]3O[C@@H]5CO[C@@H](C)O[C@H]5[C@H](O)[C@H]3O)[C@H]3COC(=O)[C@H]23)OCO4)cc(OC)c1O [Etoposide] (first compound max 10 µM, 7x7, partner max 10 µM)"
  QUALITATIVE_LABEL: 1
- COMPOUND: "C[C@@H](Nc1cc(F)cc(F)c1)c1cc(C(=O)N(C)C)cc2c(=O)cc(N3CCOCC3)oc12 [AZD8186] + C1CN(CCC1(C(=O)N[C@@H](CCO)C2=CC=C(C=C2)Cl)N)C3=NC=NC4=C3C=CN4 [AZD5363] (first compound max 10 µM, 7x7, partner max 10 µM)"
  QUALITATIVE_LABEL: -1

Query string: Check if Bliss excess >= -0.01 (inclusive). Item: C[C@@H](Oc1cc(-c2cnn(C3CCNCC3)c2)cnc1N)c1c(Cl)ccc(F)c1Cl [Crizotinib] + CC1=C(C(=CC=C1)Cl)NC(=O)C2=CN=C(S2)NC3=CC(=NC(=N3)C)N4CCN(CC4)CCO [Dasatinib] (first compound max 10 µM, 7x7, partner max 2 µM)
Result string: -1

Query string: Check if Bliss excess >= -0.01 (inclusive). Item: Cc1c2c(nn1C)CSCc1cc(n(C)n1)CSc1cc(c3ccccc3c1)OCCCc1c(C(=O)O)n(C)c3c-2c(Cl)ccc13 [AZD5991] + Cc1cc2ncnn2cc1Nc1ncc2c(n1)n(C1CCOCC1)c(=O)n2C [AZD7648] (first compound max 1 µM, 7x7, partner max 10 µM)
Result string: 1

Query string: Check if Bliss excess >= -0.01 (inclusive). Item: O=C(c1cc(Cc2n[nH]c(=O)c3ccccc23)ccc1F)N1CCN(C(=O)C2CC2)CC1 [Olaparib] + CC1(C)CCC(CN2CCN(c3ccc(C(=O)NS(=O)(=O)c4ccc(NCC5CCOCC5)c([N+](=O)[O-])c4)c(Oc4cnc5[nH]ccc5c4)c3)CC2)=C(c2ccc(Cl)cc2)C1 [Venetoclax] (first compound max 10 µM, 7x7, partner max 1 µM)
Result string: -1

---

System: NCI-H1648 (Lung Adenocarcinoma)
METHOD_NOTES: Bliss excess, mean over the matrix (fraction); higher = more synergy
# Bliss excess values compiled below
The response must contain the number and no unit.

- MOLECULE: "Cc1cc2ncnn2cc1Nc1ncc2c(n1)n(C1CCOCC1)c(=O)n2C [AZD7648] + COc1cc([C@@H]2c3cc4c(cc3[C@@H](O[C@@H]3O[C@@H]5CO[C@@H](C)O[C@H]5[C@H](O)[C@H]3O)[C@H]3COC(=O)[C@H]23)OCO4)cc(OC)c1O [Etoposide] (first compound max 10 µM, 7x7, partner max 10 µM)"
  Bliss excess: -0.0577
- MOLECULE: "Cn1cnc2c(F)c(Nc3ccc(Br)cc3Cl)c(C(=O)NOCCO)cc21 [Selumetinib] + C=CCn1c(=O)c2cnc(Nc3ccc(N4CCN(C)CC4)cc3)nc2n1-c1cccc(C(C)(C)O)n1 [AZD1775] (first compound max 10 µM, partner max 1 µM)"
  Bliss excess: -0.0704
- MOLECULE: "COc1nnc2ccc(N3CCC(c4ccc(OCCN5CCN(C)C(=O)[C@H]5C)cc4)CC3)nn12 [AZD5153] + C[C@@H]1COCCN1C2=NC(=NC(=C2)C3(CC3)[S@](=N)(=O)C)C4=C5C=CNC5=NC=C4 [AZD6738] (first compound max 1 µM, 7x7, partner max 10 µM)"
  Bliss excess: -0.0572
- MOLECULE: "N#Cc1cnc(Nc2cc(NC[C@H]3CNCCO3)c(C(F)(F)F)cn2)cn1 [SRA737] + O=c1[nH]cc(F)c(=O)[nH]1 [5-Fluorouracil] (first compound max 10 µM, 7x7, partner max 20 µM)"
  Bliss excess: -0.0515
- MOLECULE: "Cc1cc2ncnn2cc1Nc1ncc2c(n1)n(C1CCOCC1)c(=O)n2C [AZD7648] + O=C(c1cc(Cc2n[nH]c(=O)c3ccccc23)ccc1F)N1CCN(C(=O)C2CC2)CC1 [Olaparib] (first compound max 10 µM, 7x7, partner max 10 µM)"
  Bliss excess: -0.0549

Query string: Recorded Bliss excess of C[C@@H](Oc1cc(-c2cnn(C3CCNCC3)c2)cnc1N)c1c(Cl)ccc(F)c1Cl [Crizotinib] + CC1=C(C(=CC=C1)Cl)NC(=O)C2=CN=C(S2)NC3=CC(=NC(=N3)C)N4CCN(CC4)CCO [Dasatinib] (first compound max 10 µM, 7x7, partner max 2 µM) , please.
Result string: 0.0331

Query string: Recorded Bliss excess of CCc1c2c(nc3ccc(O)cc13)-c1cc3c(c(=O)n1C2)COC(=O)[C@]3(O)CC [SN-38] + CN(C)CCCOc1ccc(-c2ccc3ncc4c(c3c2)n(C2CCOCC2)c(=O)n4C)cn1 [AZD0156] (first compound max 0.3 µM, 7x7, partner max 1 µM) , please.
Result string: -0.0451

---

System: MDA-MB-175-VII (Breast Carcinoma)
METHOD_NOTES: combination Emax (second highest fraction inhibited in the dose matrix, 72 h); higher = more inhibition; extreme values may be limits of the assay
OBSERVED_PROPERTY: combination Emax
The response must contain the number and no unit.

Solved cases below.
- MOLECULE: "CN(CCO)CC[C@H](CSc1ccccc1)Nc1ccc(S(=O)(=O)NC(=O)c2ccc(N3CCC([C@@H](O)c4ccccc4-c4ccc(Cl)cc4)CC3)cc2)cc1S(=O)(=O)C(F)(F)F [AZD4320] + C[C@@H]1COCCN1C2=NC(=NC(=C2)C3(CC3)[S@](=N)(=O)C)C4=C5C=CNC5=NC=C4 [AZD6738] (first compound max 1 µM, 7x7, partner max 10 µM)"
  TARGET_DESC: "MDA-MB-175-VII (Breast Carcinoma)"
  combination Emax: 0.474
- MOLECULE: "CN(CCO)CC[C@H](CSc1ccccc1)Nc1ccc(S(=O)(=O)NC(=O)c2ccc(N3CCC([C@@H](O)c4ccccc4-c4ccc(Cl)cc4)CC3)cc2)cc1S(=O)(=O)C(F)(F)F [AZD4320] + C[C@@H](Nc1cc(F)cc(F)c1)c1cc(C(=O)N(C)C)cc2c(=O)cc(N3CCOCC3)oc12 [AZD8186] (first compound max 1 µM, 7x7, partner max 3 µM)"
  TARGET_DESC: "MDA-MB-175-VII (Breast Carcinoma)"
  combination Emax: 0.453
- MOLECULE: "NC1(C(=O)N[C@@H](CCO)c2ccc(Cl)cc2)CCN(c2ncnc3[nH]ccc23)CC1 [Capivasertib] + Cn1cnc2c(F)c(Nc3ccc(Br)cc3Cl)c(C(=O)NOCCO)cc21 [Selumetinib] (first compound max 10 µM, 7x7, partner max 10 µM)"
  TARGET_DESC: "MDA-MB-175-VII (Breast Carcinoma)"
  combination Emax: 0.957

Query string: Recorded combination Emax of NC1(C(=O)N[C@@H](CCO)c2ccc(Cl)cc2)CCN(c2ncnc3[nH]ccc23)CC1 [Capivasertib] + C[C@@H]1COCCN1C2=NC(=NC(=C2)C3(CC3)[S@](=N)(=O)C)C4=C5C=CNC5=NC=C4 [AZD6738] (first compound max 10 µM, 7x7, partner max 10 µM) , please.
Result string: 0.683

Query string: Recorded combination Emax of CCc1c2c(nc3ccc(O)cc13)-c1cc3c(c(=O)n1C2)COC(=O)[C@]3(O)CC [SN-38] + CN(C)CCCOc1ccc(-c2ccc3ncc4c(c3c2)n(C2CCOCC2)c(=O)n4C)cn1 [AZD0156] (first compound max 0.3 µM, 7x7, partner max 1 µM) , please.
Result string: 0.631

Query string: Recorded combination Emax of C[C@@H](c1ccc2nccn2c1)n1nnc2ncc(-c3cnn(C)c3)nc21 [Savolitinib] + CC1(C)CCC(CN2CCN(c3ccc(C(=O)NS(=O)(=O)c4ccc(NCC5CCOCC5)c([N+](=O)[O-])c4)c(Oc4cnc5[nH]ccc5c4)c3)CC2)=C(c2ccc(Cl)cc2)C1 [Venetoclax] (first compound max 1 µM, 7x7, partner max 1 µM) , please.
Result string: 0.2

Query string: Recorded combination Emax of CC1(C)CCC(CN2CCN(c3ccc(C(=O)NS(=O)(=O)c4ccc(NCC5CCOCC5)c([N+](=O)[O-])c4)c(Oc4cnc5[nH]ccc5c4)c3)CC2)=C(c2ccc(Cl)cc2)C1 [Venetoclax] + CN(C)CCCOc1ccc(-c2ccc3ncc4c(c3c2)n(C2CCOCC2)c(=O)n4C)cn1 [AZD0156] (first compound max 1 µM, 7x7, partner max 1 µM) , please.
Result string: 0.174
